# Assay target: T1, human EphA3 (Homo sapiens, UniProt P29320)
# T1 construct: a protein of the extracellular region of each human Eph receptor fused with the SEAP protein and the His tag; made in house; host or cells: Expi293F cells (culture supernatant)
# T1 sequence (P29320 21-541 limits assumed): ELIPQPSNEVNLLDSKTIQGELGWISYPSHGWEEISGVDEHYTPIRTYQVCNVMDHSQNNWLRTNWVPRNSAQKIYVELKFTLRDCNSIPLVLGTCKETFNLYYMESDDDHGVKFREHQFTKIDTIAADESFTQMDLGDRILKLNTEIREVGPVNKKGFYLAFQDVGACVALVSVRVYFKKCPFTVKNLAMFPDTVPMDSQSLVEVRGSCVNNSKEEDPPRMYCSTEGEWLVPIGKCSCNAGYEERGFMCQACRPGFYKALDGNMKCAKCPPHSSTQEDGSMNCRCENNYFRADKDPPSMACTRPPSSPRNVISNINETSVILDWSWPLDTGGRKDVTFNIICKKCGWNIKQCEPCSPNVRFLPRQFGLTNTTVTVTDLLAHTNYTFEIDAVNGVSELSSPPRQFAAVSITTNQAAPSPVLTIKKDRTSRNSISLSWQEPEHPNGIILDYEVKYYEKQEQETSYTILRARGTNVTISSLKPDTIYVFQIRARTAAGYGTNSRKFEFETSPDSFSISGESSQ
# Protocol details: Selectivity ELISA of humanized antibodies for human Eph receptor
# Format: binding
# Experimental setup: coated protein 1 nM
Value kind: hEphA3-SEAP-: absorbance at 450 nm, percentage with respect to hEphA4-SEAP-His as 100% (%)
Entry rule: numbers only, all in %.

1. 154 (antibody, V domains shown, synthetic humanized antibody heavy chain variable region sequence; synthetic humanized antibody light chain variable region sequence) VH: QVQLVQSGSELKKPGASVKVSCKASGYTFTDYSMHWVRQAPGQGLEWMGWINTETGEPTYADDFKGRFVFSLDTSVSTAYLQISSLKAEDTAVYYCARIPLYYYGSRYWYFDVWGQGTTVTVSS VL: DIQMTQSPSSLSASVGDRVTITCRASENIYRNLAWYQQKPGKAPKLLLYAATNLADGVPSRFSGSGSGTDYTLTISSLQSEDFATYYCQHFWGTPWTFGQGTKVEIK; 6.2
2. 78 (antibody, V domains shown, synthetic humanized antibody heavy chain variable region sequence; synthetic humanized antibody light chain variable region sequence) VH: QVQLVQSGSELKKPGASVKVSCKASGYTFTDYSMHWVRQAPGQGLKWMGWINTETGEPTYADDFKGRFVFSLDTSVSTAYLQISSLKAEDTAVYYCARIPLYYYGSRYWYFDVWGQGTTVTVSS VL: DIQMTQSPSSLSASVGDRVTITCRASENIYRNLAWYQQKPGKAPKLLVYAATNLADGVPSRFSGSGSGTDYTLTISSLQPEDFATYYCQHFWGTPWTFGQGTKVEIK; 5.1

hEphA3-SEAP-: absorbance at 450 nm, percentage with respect to hEphA4-SEAP-His as 100% reading for 93 (antibody, V domains shown, constant regions without entry; synthetic humanized antibody light chain variable region sequence; synthetic humanized antibody heavy chain variable region sequence) VL: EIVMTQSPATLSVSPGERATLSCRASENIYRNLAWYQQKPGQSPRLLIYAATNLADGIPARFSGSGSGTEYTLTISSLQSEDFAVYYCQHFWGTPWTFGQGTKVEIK VH: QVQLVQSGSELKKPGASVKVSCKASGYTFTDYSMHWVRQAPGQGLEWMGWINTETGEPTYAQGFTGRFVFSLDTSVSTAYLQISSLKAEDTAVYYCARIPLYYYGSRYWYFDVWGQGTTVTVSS : 5.1

hEphA3-SEAP-: absorbance at 450 nm, percentage with respect to hEphA4-SEAP-His as 100% reading for 89 (antibody, V domains shown, constant regions without entry; synthetic humanized antibody light chain variable region sequence; synthetic humanized antibody heavy chain variable region sequence) VL: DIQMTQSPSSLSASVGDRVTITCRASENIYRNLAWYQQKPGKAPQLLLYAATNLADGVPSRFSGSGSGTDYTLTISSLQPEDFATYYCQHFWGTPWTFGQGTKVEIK VH: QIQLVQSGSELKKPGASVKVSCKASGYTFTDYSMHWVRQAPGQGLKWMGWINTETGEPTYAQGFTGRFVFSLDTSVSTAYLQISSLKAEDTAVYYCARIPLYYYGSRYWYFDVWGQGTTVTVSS : 5.8
